biological target: α4β1 integrin (Homo sapiens (Human), UniProt P05556+P13612); test: Integrin Adhesion Assay: Protocol 5 (VCAM-coated plate, RPMI-8866 cells with stable LOF mutation of the ITGB7 gene); type: cell-based; conditions: RPMI-8866 cells with stable LOF mutation of the ITGB7 gene; read-out: Mean IC50 α4β1 KO^b
Sequence (P13612 34-1032): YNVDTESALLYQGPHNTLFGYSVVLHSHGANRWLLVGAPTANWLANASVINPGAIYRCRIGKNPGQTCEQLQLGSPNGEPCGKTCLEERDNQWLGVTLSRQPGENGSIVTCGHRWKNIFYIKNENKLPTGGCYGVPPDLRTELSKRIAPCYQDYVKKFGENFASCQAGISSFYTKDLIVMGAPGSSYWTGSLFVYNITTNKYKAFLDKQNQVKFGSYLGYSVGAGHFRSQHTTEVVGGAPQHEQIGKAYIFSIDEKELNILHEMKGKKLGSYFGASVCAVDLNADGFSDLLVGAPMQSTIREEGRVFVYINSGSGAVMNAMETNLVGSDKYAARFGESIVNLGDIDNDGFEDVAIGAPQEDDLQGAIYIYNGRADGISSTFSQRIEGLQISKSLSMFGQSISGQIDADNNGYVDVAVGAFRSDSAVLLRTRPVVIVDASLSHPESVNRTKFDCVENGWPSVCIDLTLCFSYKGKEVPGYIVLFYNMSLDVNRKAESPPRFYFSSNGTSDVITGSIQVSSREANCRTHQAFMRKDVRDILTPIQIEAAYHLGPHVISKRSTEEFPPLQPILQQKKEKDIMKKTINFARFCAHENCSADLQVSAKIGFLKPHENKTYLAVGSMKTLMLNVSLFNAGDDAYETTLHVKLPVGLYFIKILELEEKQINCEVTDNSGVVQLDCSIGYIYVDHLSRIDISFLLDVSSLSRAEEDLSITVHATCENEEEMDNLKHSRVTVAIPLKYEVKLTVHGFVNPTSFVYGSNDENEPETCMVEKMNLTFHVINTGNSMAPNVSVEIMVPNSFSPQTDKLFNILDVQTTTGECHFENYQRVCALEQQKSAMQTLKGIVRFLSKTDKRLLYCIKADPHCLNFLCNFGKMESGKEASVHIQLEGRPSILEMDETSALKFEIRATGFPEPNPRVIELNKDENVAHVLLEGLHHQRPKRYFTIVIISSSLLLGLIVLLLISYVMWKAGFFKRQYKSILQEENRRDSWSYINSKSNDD
Sequence (P05556 21-798): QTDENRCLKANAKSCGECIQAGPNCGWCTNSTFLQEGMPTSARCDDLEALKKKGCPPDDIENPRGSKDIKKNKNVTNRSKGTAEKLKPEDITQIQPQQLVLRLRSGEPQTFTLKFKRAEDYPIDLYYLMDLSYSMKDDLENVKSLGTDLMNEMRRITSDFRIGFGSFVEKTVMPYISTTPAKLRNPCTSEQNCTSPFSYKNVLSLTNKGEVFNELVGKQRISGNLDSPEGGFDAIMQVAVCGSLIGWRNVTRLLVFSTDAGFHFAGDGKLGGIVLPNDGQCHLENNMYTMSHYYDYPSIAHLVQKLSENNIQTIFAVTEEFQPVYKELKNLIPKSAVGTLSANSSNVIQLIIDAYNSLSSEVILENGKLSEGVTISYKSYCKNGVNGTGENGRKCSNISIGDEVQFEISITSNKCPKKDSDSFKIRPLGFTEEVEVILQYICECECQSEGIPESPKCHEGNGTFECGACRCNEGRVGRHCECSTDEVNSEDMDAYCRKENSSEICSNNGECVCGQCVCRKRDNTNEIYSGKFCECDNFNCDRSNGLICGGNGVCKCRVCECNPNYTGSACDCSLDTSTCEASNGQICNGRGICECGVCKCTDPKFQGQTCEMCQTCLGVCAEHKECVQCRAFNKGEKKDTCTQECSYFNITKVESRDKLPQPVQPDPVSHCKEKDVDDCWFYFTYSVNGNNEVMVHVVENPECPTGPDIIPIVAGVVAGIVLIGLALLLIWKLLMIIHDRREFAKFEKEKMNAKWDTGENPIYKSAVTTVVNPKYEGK
Metric Name: IC50

The reported α4β1 integrin (Homo sapiens (Human), UniProt P05556+P13612) IC50 of COc1cnc(CN(C)C)cc1-c1cccc2c(C[C@H](NC(=O)c3c(C)cccc3F)C(=O)O)cccc12 [Compound 601] is > 1 µM

The reported α4β1 integrin (Homo sapiens (Human), UniProt P05556+P13612) IC50 of COc1ccc(CN2CCC3(CC2)CC3)c(OC)c1-c1cccc2c(C[C@H](NC(=O)c3c(C)cccc3F)C(=O)O)cccc12 [Compound 623] is 0.1 to 1 µM

The reported α4β1 integrin (Homo sapiens (Human), UniProt P05556+P13612) IC50 of COc1cccc(CN2CCCCC2)c1-c1cccc2c(C[C@H](NC(=O)C3(C(F)(F)F)CCN(CC(F)(F)F)CC3)C(=O)O)cccc12 [Compound 566] is > 1 µM

The reported α4β1 integrin (Homo sapiens (Human), UniProt P05556+P13612) IC50 of COc1ccc(CN2CCCCC2)cc1-c1cccc2c(C[C@H](NC(=O)c3c(C)cccc3F)C(=O)O)cccc12 [Compound 667] is > 1 µM

The reported α4β1 integrin (Homo sapiens (Human), UniProt P05556+P13612) IC50 of Cn1c(=O)c(-c2cccc3c(C[C@H](NC(=O)c4c(F)cc(C5CCOCC5)cc4F)C(=O)O)cccc23)c(C(F)(F)F)c2ccccc21 [Compound 373] is > 1 µM

The reported α4β1 integrin (Homo sapiens (Human), UniProt P05556+P13612) IC50 of Cn1ccc(C(F)(F)F)c(-c2cccc3c(C[C@H](NC(=O)c4c(F)cc(N5CCOC(CN6CCCC6)C5)cc4F)C(=O)O)cccc23)c1=O (stereo partly shown) [Compound 440] is > 1 µM

----------
Listed molecules paired with reported pIC50
molecular target: α4β7 integrin (Homo sapiens (Human), UniProt P13612+P26010); experiment: Integrin Adhesion Assay: Protocol 4 (MAdCAM-coated plate, RPMI-8866 cells with stable LOF mutation of the ITGB1 gene); type: cell-based; conditions: Protocol 4; RPMI-8866 cells with LOF mutation of ITGB1, MAdCAM; read-out: Mean IC50 α4β7 KO
Sequence (P13612 34-1032): as the sequence (P13612 34-1032) above
Sequence (P26010 20-798): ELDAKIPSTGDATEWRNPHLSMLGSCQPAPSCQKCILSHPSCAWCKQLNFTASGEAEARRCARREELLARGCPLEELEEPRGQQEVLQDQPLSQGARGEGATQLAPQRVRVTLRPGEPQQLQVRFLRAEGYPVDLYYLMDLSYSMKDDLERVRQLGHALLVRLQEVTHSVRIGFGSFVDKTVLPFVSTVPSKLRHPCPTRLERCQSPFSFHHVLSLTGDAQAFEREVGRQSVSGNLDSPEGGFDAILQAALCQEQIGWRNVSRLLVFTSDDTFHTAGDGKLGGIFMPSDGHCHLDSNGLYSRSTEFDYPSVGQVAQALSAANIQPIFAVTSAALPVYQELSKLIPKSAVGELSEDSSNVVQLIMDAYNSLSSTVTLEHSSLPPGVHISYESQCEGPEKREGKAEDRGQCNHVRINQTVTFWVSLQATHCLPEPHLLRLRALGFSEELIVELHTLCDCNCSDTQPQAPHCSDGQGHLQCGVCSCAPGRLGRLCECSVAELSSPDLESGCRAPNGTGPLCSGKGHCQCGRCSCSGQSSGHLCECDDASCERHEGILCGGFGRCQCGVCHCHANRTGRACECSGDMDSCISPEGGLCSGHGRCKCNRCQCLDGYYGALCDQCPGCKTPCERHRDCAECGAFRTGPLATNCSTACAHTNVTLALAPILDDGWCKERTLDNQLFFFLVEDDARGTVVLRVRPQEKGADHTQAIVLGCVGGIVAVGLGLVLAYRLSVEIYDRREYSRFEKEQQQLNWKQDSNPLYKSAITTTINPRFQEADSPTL
pIC50: −log10 of the molar value.

A selection of reference data follows.
Molecule	pIC50
O=C(O)[C@H](Cc1cccc2c(-c3ncc(CN4CCC5(CC4)CC5)c4ccccc34)cccc12)NC(=O)C1(C(F)(F)F)CCN(C2COC2)CC1	> 8.00
O=C(O)[C@H](Cc1cccc2c(-c3ncc(CN4CCC(C(F)(F)F)CC4)c4ccccc34)cccc12)NC(=O)C1(C(F)(F)F)CCN(CC(F)F)CC1	7.00 to 8.00
COc1cccc(CCN2CCC(c3ccccc3)CC2)c1-c1cccc2c(C[C@H](NC(=O)C3(C(F)(F)F)CCN(CC(F)F)CC3)C(=O)O)cccc12	> 8.00
Cc1cccc(F)c1C(=O)N[C@@H](Cc1cccc2c(-c3cc(CN4CCCCC4)ccn3)cccc12)C(=O)O	7.00 to 8.00

What the record says about Cn1c(=O)c(-c2cccc3c(C[C@H](NC(=O)C4(C)C5CC4CN(CC(F)(F)F)C5)C(=O)O)cccc23)c(C(F)(F)F)c2ccccc21 (some centres unmarked) : pIC50 is 6.00 to 7.00

What the record says about O=C(O)[C@H](Cc1cccc2c(-c3ncc(CN4CCOCC45CC5)c4ccccc34)cccc12)NC(=O)C1(C(F)(F)F)CCN(CC(F)(F)F)CC1 : pIC50 is > 8.00

What the record says about COc1ccc(CN2CCCC(F)C2)c(OC)c1-c1cccc2c(C[C@H](NC(=O)c3c(C)cccc3F)C(=O)O)cccc12 (some centres unmarked) : pIC50 is > 8.00

What the record says about COc1ccc(CCN2CCC3(CCCCC3)CC2)c(OC)c1-c1cccc2c(C[C@H](NC(=O)C3(C(F)(F)F)CCN(CC(F)(F)F)CC3)C(=O)O)cccc12 : pIC50 is > 8.00

What the record says about O=C(O)[C@H](Cc1cccc2c(-c3ncc(C(=O)N4CCN(C5CC5)CC4)c4ccccc34)cccc12)NC(=O)C1(C(F)(F)F)CCN(CC(F)F)CC1 : pIC50 is 7.00 to 8.00

----------
Listed compounds paired with reported IC50
target: α4β1 integrin (Homo sapiens (Human), UniProt P05556+P13612); experiment: Integrin Adhesion Assay: Protocol 5 (VCAM-coated plate, RPMI-8866 cells with stable LOF mutation of the ITGB7 gene); format: cell-based; conditions: RPMI-8866 cells with stable LOF mutation of the ITGB7 gene; read-out: Mean IC50 α4β1 KO^b

A selection of reference data follows.
Compound	Metric Name	Observed
CN(C)Cc1cc(-c2cccc3c(C[C@H](NC(=O)C4(C(F)(F)F)CCN(CC(F)(F)F)CC4)C(=O)O)cccc23)c2cnccc2c1	IC50	> 1000 nM
Cn1c(=O)c(-c2cccc3c(C[C@H](NC(=O)c4c(F)cc(N5CC(C)(C)OC(C)(C)C5)cc4F)C(=O)O)cccc23)c(C(F)(F)F)c2ccccc21	IC50	> 1000 nM
Cn1c(=O)c(-c2cccc3c(C[C@H](NC(=O)c4c(F)cc(N5CCOC[C@@H]5C(F)(F)F)cc4F)C(=O)O)cccc23)c(C(F)(F)F)c2ccccc21	IC50	> 1000 nM
COc1cncc(OC)c1-c1cccc2c(C[C@H](NC(=O)c3c(C)cccc3F)C(=O)O)cccc12	IC50	100 to 1000 nM

Consider the record given below.
What the record says about Cn1c(=O)c(-c2cccc3c(C[C@H](NC(=O)c4c(F)cc(N(CCC(F)(F)F)C5COC5)cc4F)C(=O)O)cccc23)c(C(F)(F)F)c2ccccc21 : IC50 is > 1000 nM

----------
target: α4β7 integrin (Homo sapiens (Human), UniProt P13612+P26010); experiment: Integrin Adhesion Assay: Protocol 4 (MAdCAM-coated plate, RPMI-8866 cells with stable LOF mutation of the ITGB1 gene); type: cell-based; conditions: RPMI-8866 cells with stable LOF mutation of the ITGB1 gene; read-out: Mean IC50 α4β7 KO^a
Listed compounds paired with reported IC50

A selection of reference data follows.
Compound	Target Or Test System	Observed
Cn1c(=O)c(-c2cccc3c(C[C@H](NC(=O)c4c(F)cc([C@H]5C[C@@H](N(C)C)C5)cc4F)C(=O)O)cccc23)c(C(F)(F)F)c2ccccc21	α4β7 integrin (Homo sapiens (Human), UniProt P13612+P26010)	100 to 1000 nM
COc1ccc(CN2CCC(F)(F)CC2)c(OC)c1-c1cccc2c(C[C@H](NC(=O)c3c(C)ccnc3F)C(=O)O)cccc12	α4β7 integrin (Homo sapiens (Human), UniProt P13612+P26010)	10 to 100 nM
CO[C@H]1C[C@@H](c2cc(F)c(C(=O)N[C@@H](Cc3cccc4c(-c5c(C(F)(F)F)c6ccccc6n(C)c5=O)cccc34)C(=O)O)c(F)c2)N(C)C1	α4β7 integrin (Homo sapiens (Human), UniProt P13612+P26010)	100 to 1000 nM
CN(C)Cc1cccc2c(-c3cccc4c(C[C@H](NC(=O)[C@]5(C)CC[C@H](N6CCOC[C@@H]6C(F)(F)F)CC5)C(=O)O)cccc34)nccc12 (single isomer, unassigned)	α4β7 integrin (Homo sapiens (Human), UniProt P13612+P26010)	10 to 100 nM
COCCc1cc(F)c(C(=O)N[C@@H](Cc2cccc3c(-c4c(C(F)(F)F)c5ccccc5n(C)c4=O)cccc23)C(=O)O)c(F)c1	α4β7 integrin (Homo sapiens (Human), UniProt P13612+P26010)	100 to 1000 nM

What the record says about COC(=O)[C@H](Cc1cccc2c(-c3c(OC)ccc(CN(C)C)c3C(F)(F)F)cccc12)NC(=O)OC(C)(C)C : IC50 is < 10 nM

What the record says about O=C(O)[C@H](Cc1cccc2c(-c3nccc4c(CN5CCOC(C(F)(F)F)C5)cccc34)cccc12)NC(=O)C1(C(F)(F)F)CCN(CC(F)(F)F)CC1 (some centres unmarked) : IC50 is 10 to 100 nM

What the record says about COc1ccc(CN2CCC(C)(C)CC2)c(OC)c1-c1cccc2c(C[C@H](NC(=O)c3c(C)cccc3F)C(=O)O)cccc12 : IC50 is < 10 nM

What the record says about CN(C)c1ccc2c(c1)c(C(F)(F)F)c(-c1cccc3c(C[C@H](NC(=O)[C@]4(C)CC[C@@H](N5CCOC[C@@H]5C(F)(F)F)CC4)C(=O)O)cccc13)c(=O)n2C : IC50 is 100 to 1000 nM

What the record says about CCCS(=O)(=O)Nc1ccc(F)c(C(=O)N[C@@H](Cc2cccc3c(-c4c(C(F)(F)F)c5ccccc5n(C)c4=O)cccc23)C(=O)O)c1F : IC50 is 10 to 100 nM

What the record says about Cc1c(F)ccc(F)c1C(=O)N[C@@H](Cc1cccc2c(-c3c(C(F)(F)F)c4ccccc4n(C)c3=O)cccc12)C(=O)O : IC50 is 10 to 100 nM

The measurements presented in this section are drawn from patent US20250313535A1.
